Known Activity of a selection of compounds
study-system: Polyunsaturated fatty acid lipoxygenase ALOX12 (Homo sapiens) (UniProt P18054)
Sequence (P18054 whole entry): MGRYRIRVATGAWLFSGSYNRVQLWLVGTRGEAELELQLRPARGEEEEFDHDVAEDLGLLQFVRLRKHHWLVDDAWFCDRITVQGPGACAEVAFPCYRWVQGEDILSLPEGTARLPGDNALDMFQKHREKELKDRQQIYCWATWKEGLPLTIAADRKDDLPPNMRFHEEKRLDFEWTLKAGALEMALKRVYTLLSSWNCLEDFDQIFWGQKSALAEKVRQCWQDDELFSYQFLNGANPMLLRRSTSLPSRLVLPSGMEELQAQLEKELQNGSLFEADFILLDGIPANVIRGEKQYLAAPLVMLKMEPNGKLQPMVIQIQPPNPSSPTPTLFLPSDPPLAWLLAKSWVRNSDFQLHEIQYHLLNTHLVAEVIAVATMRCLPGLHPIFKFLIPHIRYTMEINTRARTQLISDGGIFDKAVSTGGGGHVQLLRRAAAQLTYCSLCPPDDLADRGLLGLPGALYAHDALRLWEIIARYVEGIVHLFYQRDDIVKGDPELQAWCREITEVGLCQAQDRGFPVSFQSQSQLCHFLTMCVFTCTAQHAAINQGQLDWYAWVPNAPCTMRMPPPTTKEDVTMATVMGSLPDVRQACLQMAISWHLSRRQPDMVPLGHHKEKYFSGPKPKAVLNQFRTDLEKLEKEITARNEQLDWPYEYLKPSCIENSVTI
procedure-text: Inhibition of 12-lipoxygenase in human PMNL cells using arachidonic acid as substrate assessed as residual activity at 10 uM preincubated with compound for 15 mins followed by A23187 and substrate addition and measured after 10 mins by HPLC analysis relative to control
Assay type: cell-based
condition-details: time 25.0 min
Answer with the number, then the unit.

The cases that follow already have their Activity on record.
1. Oc1ccc(-c2ccc(Cl)cc2)cc1O = 74.9%
2. Oc1ccc(-c2cccc3c2oc2ccccc23)cc1O = 69.5%
3. CCOc1ccc2ccccc2c1-c1ccc(O)c(O)c1 = 88.8%
4. Oc1ccc(-c2ccc3c(c2)OCCO3)cc1O = 89.6%
5. Oc1ccc(-c2cc3ccccc3o2)cc1O = 80.6%
6. Oc1ccc(-c2cccc(Cl)c2)cc1O = 86.6%

Prompt: Requested read-out: Activity. Entry: "Oc1ccc(-c2ccc3ccccc3c2)cc1O"
Completion: 93.8%

Prompt: Given "Oc1ccc(-c2ccccc2)cc1O" , state its recorded Activity.
Completion: 86.1%
